B1: SFRS1 (parent)
chain: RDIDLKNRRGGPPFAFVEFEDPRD

# Variants of: B1
# ASSAY DETAILS: protein stability index of a GFP-peptide fusion (GPS, HEK-293T) (PSI 1-6); higher = more stable;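 also: lentivirally expressed fusions sorted by FACS into six bins by GFP to DsRed ratio, PSI derived from sequencing read proportions per bin multiplied by bin number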
# CONDITION: c terminus: a fixed tail appended
Everything with protein stability index lower than 4 is no (0); everything else, including exactly 4, is yes (1).

Example cases with answers are listed next.
INSERT INTO assay_data (sequence_chain, answer_label) VALUES
  ('RDIDLKNRRGGPPFAFVEFESPRD [D21S]', 'no (0)'),
  ('RAIDLKNRRGGPPFAFVEFEDPRD [D2A]', 'no (0)'),
  ('LDIDLKNRRGGPPFAFVEFEDPRD [R1L]', 'yes (1)'),
  ('RDIDLKNRRGGPPFMFVEFEDPRD [A15M]', 'no (0)');

Request: Identify whether the reported protein stability index of the following variant is 4 or greater: RDIDLKNRRGGPPFAFVEFEDPRN [D24N]
Response: no (0)

Request: Same lookup for RDIDLKNRRGGPPFAFVEFEDYRD [P22Y] , please.
Response: no (0)

Request: Next: RDIDLKNRRGGPPFAFVENEDPRD [F19N]
Response: no (0)

Request: Lookup RDIDLKNRRGGPPFWFVEFEDPRD [A15W]
Response: no (0)

Request: Okay, and RDIDLKNRRGGPPFAFVEFEDPRH [D24H] ?
Response: no (0)
